testSummary: Inhibition of Tel-fused KDR expressed in mouse BAF3 cells
pIC50: −log10 of the molar value.
Would you please tag the item fulfilled when its pIC50 is 6 or above, and not fulfilled when it is below?

# count of solved cases: 4
> print(dat)
                                 smilescode  assignedclass
1  COCCNc1cc(-n2c(Nc3cc(NC(=O)c4cccc(C(F)(F)F)c4)ccc3C)nc3ccccc32)ncn1      fulfilled
2  Cc1ccc(C(=O)Nc2cccc3cnccc23)cc1Nc1nc2ccccc2n1-c1cc(N)ncn1  not fulfilled
3  Cc1ccc(NC(=O)c2cccc(Cl)c2)cc1Nc1nc2ccccc2n1-c1cc(N)ncn1      fulfilled
4  Cc1ccc(NC(=O)c2cccc(C(F)(F)F)c2)cc1Nc1nc2ccccc2n1-c1cc(NCCO)ncn1      fulfilled

Okay, now this compound:
Test whether the compound COc1cccc(NC(=O)c2ccc(C)c(Nc3nc4ccccc4n3-c3cc(N)ncn3)c2)c1 records pIC50 of 6 or higher.
fulfilled
